Give TGI for every item shown.
- Tested on: MOLT-4 leukemia
- Assay Overview: NCI tumour cell line growth inhibition, 48 h
State just the number; it will be interpreted in µM.

Consider the compound Cn1cc(C2=C(c3cccc(NCC(O)CO)c3)C(=O)NC2=O)c2cc(Cl)ccc21 (stereo unspecified) . State its measured TGI.
18

Consider the compound `COc1cc2c(cc1OC)C(=O)/C(=C/c1ccccc1)C2` . State its measured TGI.
43.9

Consider the compound Cc1ccc(C2CC(c3cccc(Nc4ccncc4)c3)=NN2c2ccc(Cl)cc2)cc1 (stereo unspecified) . State its measured TGI.
4.12

* * *

- Test system: NCI/ADR-RES ovarian
- Assay Overview: NCI tumour cell line growth inhibition, 48 h; in the data active = GI50 below about 0.43 µM; inactive = the rest
Can you answer with just one of these options? True for active, False for inactive

Would you mind telling me which call this test gave COC(=O)C12OCC34C(CC5C(C)=CC(=O)C(O)C5(C)C3C(O)C1O)OC(=O)C(OC(=O)CC(C)C)C24 (stereo not given) ?
True

Would you mind telling me which call this test gave `COc1ccc2c(c1)c(=O)oc1cc(OC/C(=N\O)c3ccc(F)cc3)ccc12` ?
False

Would you mind telling me which call this test gave COc1ccc(C2SC(C)C(=O)N2NC(=O)C(O)c2ccccc2)cc1 (stereo not given) ?
False

Would you mind telling me which call this test gave `CN(C)CCOc1cccc(NC2=C(Cl)C(=O)C(Nc3cccc(OCCN(C)C)c3)=C(Cl)C2=O)c1` ?
False

Would you mind telling me which call this test gave `Cn1cc(-c2nc(-c3cn(C)c4ncccc34)cs2)c2cc(F)ccc21` ?
False

Would you mind telling me which call this test gave `Nc1nn(C(=O)Nc2ccc(Cc3ccccc3)cc2)c2ccccc12` ?
False

Would you mind telling me which call this test gave COc1ccc2c(c1)N(CCO)C1=C(C(=O)OC1)C2c1cccc(Br)c1 (stereo not given) ?
True

Would you mind telling me which call this test gave `Clc1cccc(Cc2cn3cc(-c4ccccc4)nc3s2)c1` ?
False

Would you mind telling me which call this test gave COc1ccc(/C=C2\CCCC3=C2N=C2SC=NN2C3c2ccc(OC)c(OC)c2)cc1OC (stereo not given) ?
False

Would you mind telling me which call this test gave CCOC(=O)C1=C(N)Oc2cc(OC)ccc2C1c1ccc(F)c(F)c1 (stereo not given) ?
False

* * *

Give TGI for every item shown.
- System: A549 NSCLC
- Assay Overview: NCI tumour cell line growth inhibition, 48 h
State just the number; it will be interpreted in µM.

Consider the compound `Cc1cc2nc3c(C#N)c(-c4ccccc4)cc(Nc4cccc(C(F)(F)F)c4)n3c2cc1C` . State its measured TGI.
16.8

Consider the compound `CCC1=C[C@H]2CN(CCc3c([nH]c4ccccc34)[C@@](C(=O)OC)(c3cc4c(cc3OC)N(C)[C@H]3[C@@](O)(C(=O)OC)[C@H](OC(C)=O)[C@]5(CC)[C@@H]6C[C@@H]6CN6CC[C@]43[C@@H]65)C2)C1` . State its measured TGI.
9.56

Consider the compound `COc1ccc2oc(-c3ccc(Cl)cc3)c(N3CCN(C)CC3)c2c1` . State its measured TGI.
3.94

Consider the compound `N=c1c2c(=O)n3c(nc2nc2sc4ccc(Cl)cc4n12)-c1ccccc1Sc1ccccc1-3` . State its measured TGI.
12.5

Consider the compound `O=C(Nc1cccc(-n2cc(-c3ccncc3)c(-c3ccc(O)c(Cl)c3)n2)c1)Nc1ccc(Cl)c(C(F)(F)F)c1` . State its measured TGI.
5.86

Consider the compound `CO[C@H]1C[C@H](O[C@H]2CC[C@]3(C=O)[C@H]4CC[C@]5(C)[C@@H](C6=CC(=O)OC6)CC[C@]5(O)[C@@H]4CC[C@]3(O)C2)O[C@H](C)[C@H]1O[C@@H]1O[C@H](CO[C@@H]2O[C@H](CO)[C@@H](O)[C@H](O)[C@H]2O)[C@@H](O)[C@H](O)[C@H]1O` . State its measured TGI.
0.0254
